# study system: Protein kinase C delta type (Homo sapiens)
# Sequence (Q05655 whole entry): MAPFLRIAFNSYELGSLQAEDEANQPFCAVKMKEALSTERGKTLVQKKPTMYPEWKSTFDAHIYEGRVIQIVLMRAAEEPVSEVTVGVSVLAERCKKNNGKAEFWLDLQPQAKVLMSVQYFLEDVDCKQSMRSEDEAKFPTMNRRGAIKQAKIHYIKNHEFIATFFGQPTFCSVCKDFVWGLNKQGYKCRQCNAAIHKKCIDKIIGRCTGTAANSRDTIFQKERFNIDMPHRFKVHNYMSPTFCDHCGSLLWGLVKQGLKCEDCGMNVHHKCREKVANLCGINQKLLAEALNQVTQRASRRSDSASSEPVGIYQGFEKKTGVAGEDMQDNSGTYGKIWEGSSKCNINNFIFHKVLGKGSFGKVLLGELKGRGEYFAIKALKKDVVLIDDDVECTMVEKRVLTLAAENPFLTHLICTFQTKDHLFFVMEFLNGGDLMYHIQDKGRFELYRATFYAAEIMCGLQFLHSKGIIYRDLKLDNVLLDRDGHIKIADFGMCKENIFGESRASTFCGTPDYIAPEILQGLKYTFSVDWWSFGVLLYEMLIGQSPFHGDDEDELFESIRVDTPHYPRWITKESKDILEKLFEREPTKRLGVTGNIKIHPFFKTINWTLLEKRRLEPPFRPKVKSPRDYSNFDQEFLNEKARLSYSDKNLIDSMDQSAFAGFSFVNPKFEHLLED
# procedure text: Inhibition of human Protein kinase C delta
Would you mind telling me the reported IC50 of each entry?
Numbers only, in µM.

Some solved cases for reference:
O=C(N[C@H]1CCCCC[C@H]1OC(=O)c1cc(O)c(C(=O)c2c(O)cccc2C(=O)O)c(O)c1)c1ccc(O)cc1 :: 0.09
O=C(N[C@H]1CSCCC[C@H]1OC(=O)c1cc(O)c(C(=O)c2c(O)cccc2C(=O)O)c(O)c1)c1ccc(O)cc1 :: 0.09
O=C(N[C@H]1CNCCC[C@H]1OC(=O)c1cc(O)c(C(=O)c2c(O)cccc2C(=O)O)c(O)c1)c1ccc(O)cc1 (racemic) :: 0.032
O=C(N[C@H]1COCCC[C@H]1OC(=O)c1cc(O)c(C(=O)c2c(O)cccc2C(=O)O)c(O)c1)c1ccc(O)cc1 :: 0.09

Req: I'd like to know its IC50. The molecule in question is `O=C(N[C@H]1CS(=O)(=O)CCC[C@H]1OC(=O)c1cc(O)c(C(=O)c2c(O)cccc2C(=O)O)c(O)c1)c1ccc(O)cc1`
Resp: 4
